Let's look at some compounds and their measured growth.
System: ACHN renal
Assay: NCI-60 one-dose screen, 48 h (100 = growth as untreated, 0 = no growth, -100 = all killed)
Details: 10 µM unless noted
Compounds without any hit were thinned out: in the full panel of roughly 83,000, 20% have a hit. Active and inactive are the calls of the source. Rule for the calls: active = growth percent below 10; inactive = the rest.

Example results:
compound: CS(=O)(=O)Nc1cc(-c2ccc3ncnc(Nc4ccc5c(cnn5Cc5cccc(F)c5)c4)c3c2)cnc1Cl
result: 18.4% (inactive)
--
compound: C#CCOc1cccc(Nc2ncnc3ccc(NC(=O)C=C)cc23)c1
result: 14.9% (inactive)
--
compound: Clc1ccc2c(NC3CCC(N4CCOCC4)CC3)ccnc2c1 (centres undefined)
result: 73.8% (inactive)

Value sought: growth, system ACHN renal, item CCC(C(=O)[C@@H](C)[C@@H](O)[C@H](C)[C@@H]1O[C@@H]([C@@H](CC)C(=O)ONC(=O)c2ccccc2)CC[C@@H]1C)[C@H]1O[C@]2(C=CC(=O)[C@]3(CC[C@@](C)([C@H]4CC[C@](O)(CC)[C@H](C)O4)O3)O2)[C@H](C)C[C@@H]1C (some centres undefined) . Result: -47.3% (active)

Value sought: growth, system ACHN renal, item COc1ccc(-c2cc(-c3ccc(Cl)cc3)c(C#N)c(=O)n2Cc2ccc(C(=O)Nc3ccccc3N)cc2)cc1 . Result: 96.5% (inactive)

Value sought: growth, system ACHN renal, item CCOC(=O)c1cc2c(n1C)-c1nc(NC(C)=O)sc1CCC2 . Result: 86.7% (inactive)

Value sought: growth, system ACHN renal, item Cn1ccc(=O)c(C(=O)Nc2nsc3ccc([N+](=O)[O-])cc23)c1 . Result: 32.6% (inactive)

Value sought: growth, system ACHN renal, item O=C(Cn1cc(CSc2nc3ccccc3o2)nn1)Nc1ccc(F)cc1F . Result: 93.9% (inactive)

Value sought: growth, system ACHN renal, item CSc1nc(N)c(NS(=O)(=O)c2ccc(C(C)=O)cc2)c(=O)[nH]1 . Result: 108% (inactive)

Origin of values: PubChem BioAssay (NCI)
